Attribution: patent EP2970215B1

pKi reference
assay-system: human GlyT1c transporter (Homo sapiens)
Construct: expressed in transfected cells; host or cells: CHO cells (recombinant; line hGlyT1c_5_CHO is named for the uptake assay)
procedure-details: Radioligand binding assay using recombinant CHO cell membranes expressing human GlyT1
condition-description: radioligand binding to human GlyT1c transporter-expressing membranes
pKi: −log10 of the molar value.
observation-type: pKi

| molecule | assay-system | observation-type | endpoint-value |
| --- | --- | --- | --- |
| Cn1cnc(S(=O)(=O)N2C[C@H](NC(=O)CCCC(C)(F)F)[C@@H](c3ccc(F)cc3)C2)c1 [Example 735] | human GlyT1c transporter (Homo sapiens) | pKi | ≥ 5.00 |
| COc1nc(N[C@H]2CN(S(=O)(=O)c3cn(C)cn3)C[C@@H]2c2ccccc2)cc(C(F)(F)F)n1 [Example 605] | human GlyT1c transporter (Homo sapiens) | pKi | ≥ 6.00 |
| Cc1c(S(=O)(=O)N2C[C@@H](NC(=O)c3cccc(C(F)(F)F)c3Cl)[C@H](c3ccccc3)C2)cnn1C (relative stereo) [Example 41] | human GlyT1c transporter (Homo sapiens) | pKi | ≥ 5.00 |
| Cn1cnc(S(=O)(=O)N2C[C@@H](CNc3cc(Cl)cc(Cl)c3)[C@H](c3ccc(F)cc3)C2)c1 (relative stereo) [Example 292] | human GlyT1c transporter (Homo sapiens) | pKi | ≥ 6.00 |
| Cn1cnc(S(=O)(=O)N2C[C@@H](Nc3cccc(C(F)(F)F)c3)[C@H](C3CC3)C2)c1 (relative stereo) [Example 337] | human GlyT1c transporter (Homo sapiens) | pKi | ≥ 6.00 |
| Cn1cnc(S(=O)(=O)N2C[C@@H]([C@@H]3CCCOC3)[C@H](Nc3ccc(F)c(OC(F)(F)F)c3)C2)c1 (mixture of isomers) [Example 788] | human GlyT1c transporter (Homo sapiens) | pKi | ≥ 6.00 |

###

assay-system: human GlyT1c transporter (Homo sapiens)
Construct: expressed in transfected cells; host or cells: CHO cells (recombinant; line hGlyT1c_5_CHO is named for the uptake assay)
procedure-details: Radioligand binding assay using recombinant CHO cell membranes expressing human GlyT1
condition-description: radioligand binding to human GlyT1c transporter-expressing membranes
observation-type: Ki

| molecule | endpoint-value |
| --- | --- |
| Cn1cnc(S(=O)(=O)N2C[C@@H](Nc3ccccc3)[C@H](c3ccccc3)C2)c1 (relative stereo) | ≤ 1 µM |
| CCCS(=O)(=O)N1C[C@@H](NC(=O)c2cccc(C(F)(F)F)c2Cl)[C@H](c2ccccc2)C1 (relative stereo) | ≤ 10 µM |
| CCS(=O)(=O)N1C[C@@H](NC(=O)c2cccc(C(F)(F)F)c2Cl)[C@H](c2ccccc2)C1 (relative stereo) | ≤ 10 µM |
| Cn1cnc(S(=O)(=O)N2C[C@@H](Nc3ccc(Cl)cc3)[C@H](c3ccc(F)cc3)C2)c1 (relative stereo) | ≤ 1 µM |
| Cn1cnc(S(=O)(=O)N2C[C@H](NCc3sc4ccccc4c3Cl)[C@@H](c3ccccc3)C2)c1 | ≤ 0.1 µM |
| CCCCCN[C@H]1CN(S(=O)(=O)c2cn(C)cn2)C[C@@H]1c1ccc(F)cc1 | ≤ 0.1 µM |
| Cc1cc(C#N)cc(N[C@@H]2CN(S(=O)(=O)c3cn(C)cn3)C[C@H]2c2ccccc2)c1 (relative stereo) | ≤ 1 µM |
| Cn1cnc(S(=O)(=O)N2C[C@H](NCc3scnc3-c3ccccc3)[C@@H](c3ccccc3)C2)c1 | > 10 µM |
| Cn1cnc(S(=O)(=O)N2C[C@@H](Nc3cccc(Cl)c3)[C@H](c3cccc(F)c3)C2)c1 (relative stereo) | ≤ 0.1 µM |
| CCC/C=C/CN[C@H]1CN(S(=O)(=O)c2cn(C)cn2)C[C@@H]1c1ccccc1 | ≤ 0.1 µM |
| Cn1cnc(S(=O)(=O)N2C[C@H](NCc3cccc(C(F)(F)F)n3)[C@@H](c3ccccc3)C2)c1 | ≤ 10 µM |
| Cn1cnc(S(=O)(=O)N2C[C@@H](Nc3ccc(C(F)(F)F)cc3)[C@H](c3ccc(F)cc3)C2)c1 (relative stereo) | ≤ 0.1 µM |
| Cn1cnc(S(=O)(=O)N2C[C@@H](NC(=O)c3ccc(C(F)(F)F)cc3Cl)[C@H](c3ccc(F)cc3)C2)c1 (relative stereo) | ≤ 0.1 µM |
| CCCCOC(=O)N[C@H]1CN(S(=O)(=O)c2cn(C)cn2)C[C@@H]1c1ccccc1 | ≤ 10 µM |
| Cc1ccccc1C(=O)N[C@@H]1CN(S(=O)(=O)c2cn(C)cn2)C[C@H]1c1ccccc1 (relative stereo) | ≤ 10 µM |
| Cn1cnc(S(=O)(=O)N2C[C@@H](NCc3ccc(C(F)(F)F)cc3Cl)[C@H](c3ccccc3)C2)c1 [Example 395] | ≤ 1 µM |
| CC(=O)Nc1ncc(S(=O)(=O)N2CC(Nc3ccc(F)c(F)c3)C(c3ccccc3)C2)s1 (stereo not drawn) | ≥ 10 µM |
| Cn1cnc(S(=O)(=O)N2C[C@@H](Nc3cccc(Cl)c3)[C@H](C3CCCOC3)C2)c1 (relative stereo) | ≤ 1 µM |
| Cn1cnc(S(=O)(=O)N2C[C@H](NCc3cccc4ccnn34)[C@@H](c3ccccc3)C2)c1 | ≤ 10 µM |
| Cn1cnc(S(=O)(=O)N2C[C@@H](Nc3cccc(F)c3)[C@H](c3ccccc3Cl)C2)c1 (relative stereo) | ≤ 1 µM |
| Cn1cnc(S(=O)(=O)N2C[C@H](NCc3ccc(C(F)(F)F)cn3)[C@@H](c3ccccc3)C2)c1 | ≤ 0.1 µM |
| Cn1cnc(S(=O)(=O)N2C[C@@H](Nc3ccc(F)cc3)[C@H](c3cccc(F)c3)C2)c1 (relative stereo) | ≤ 10 µM |
| C=CCO[C@@H]1CN(S(=O)(=O)c2cn(C)cn2)C[C@H]1Nc1cccc(Cl)c1 (relative stereo) | ≤ 10 µM |
| Cc1nn(C)c(Cl)c1S(=O)(=O)N1C[C@@H](NC(=O)c2cccc(C(F)(F)F)c2Cl)[C@H](c2ccccc2)C1 (relative stereo) | ≥ 10 µM |
| Cn1cnc(S(=O)(=O)N2C[C@H](NCc3c(Cl)cncc3Cl)[C@@H](c3ccccc3)C2)c1 | ≤ 10 µM |
| Cn1cnc(S(=O)(=O)N2C[C@@H](C(=O)Nc3ccc(F)c(Cl)c3)[C@H](c3ccc(F)cc3)C2)c1 (relative stereo) | ≤ 1 µM |
| Cn1cnc(S(=O)(=O)N2C[C@H](NC(=O)Nc3ccccc3Cl)[C@@H](c3ccc(F)cc3)C2)c1 | ≤ 1 µM |

###

assay-system: human GlyT1c transporter (Homo sapiens, UniProt P48067)
Construct: expressed in transfected cells; host or cells: CHO cells (recombinant; line hGlyT1c_5_CHO is named for the uptake assay)
Sequence (P48067 whole entry): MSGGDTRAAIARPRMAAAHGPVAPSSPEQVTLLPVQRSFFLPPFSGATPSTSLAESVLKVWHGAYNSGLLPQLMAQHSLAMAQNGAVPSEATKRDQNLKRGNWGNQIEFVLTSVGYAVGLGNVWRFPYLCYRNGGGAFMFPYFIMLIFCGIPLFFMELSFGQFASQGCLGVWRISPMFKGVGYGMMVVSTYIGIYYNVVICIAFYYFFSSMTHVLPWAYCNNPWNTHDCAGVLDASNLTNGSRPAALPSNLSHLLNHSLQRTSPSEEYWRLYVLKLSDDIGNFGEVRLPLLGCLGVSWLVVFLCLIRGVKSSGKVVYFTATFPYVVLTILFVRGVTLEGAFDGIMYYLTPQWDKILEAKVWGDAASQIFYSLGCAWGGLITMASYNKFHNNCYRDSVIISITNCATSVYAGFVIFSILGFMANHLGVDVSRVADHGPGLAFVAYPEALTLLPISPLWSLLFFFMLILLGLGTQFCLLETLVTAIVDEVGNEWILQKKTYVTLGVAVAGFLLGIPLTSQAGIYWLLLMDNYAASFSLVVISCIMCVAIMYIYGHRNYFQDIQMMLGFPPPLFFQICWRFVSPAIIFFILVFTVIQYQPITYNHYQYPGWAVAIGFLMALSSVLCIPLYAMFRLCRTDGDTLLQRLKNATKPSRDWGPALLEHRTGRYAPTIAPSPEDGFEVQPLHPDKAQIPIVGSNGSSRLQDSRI
procedure-details: Radioligand binding assay using recombinant CHO cell membranes expressing human GlyT1
condition-description: radioligand binding to human GlyT1c transporter-expressing membranes

| molecule | Ki |
| --- | --- |
| CCCOCCN[C@H]1CN(S(=O)(=O)c2cn(C)cn2)C[C@@H]1c1ccccc1 | ≤ 1000 nM |
| Cn1cnc(S(=O)(=O)N2C[C@@H](Nc3ccc(F)c(C(F)(F)F)c3)[C@H](c3ncccc3F)C2)c1 (relative stereo) | ≤ 100 nM |
| Cn1cnc(S(=O)(=O)N2C[C@@H](NC(=O)c3ccc(C(F)(F)F)c(Cl)c3)[C@H](c3ccc(F)cc3)C2)c1 (relative stereo) | ≤ 100 nM |
| CC(C)CN[C@H]1CN(S(=O)(=O)c2cn(C)cn2)C[C@@H]1c1ccccc1 | ≤ 1000 nM |
| Cn1cnc(S(=O)(=O)N2C[C@@H](C(=O)NCc3cccc(Cl)c3)[C@H](c3ccc(F)cc3)C2)c1 (relative stereo) | ≤ 10 nM |
| Cn1cnc(S(=O)(=O)N2C[C@H](NCC3CC3c3ccccc3)[C@@H](c3ccccc3)C2)c1 (stereo partly shown) | ≤ 1000 nM |
| Cn1cnc(S(=O)(=O)N2C[C@@H](NCc3ccc(Cl)cc3Cl)[C@H](c3cccnc3)C2)c1 (relative stereo) | ≤ 10000 nM |

###

Each item that follows carries a reported pKi.
assay-system: human GlyT1c transporter (Homo sapiens, UniProt P48067)
Construct: expressed in transfected cells; host or cells: CHO cells (recombinant; line hGlyT1c_5_CHO is named for the uptake assay)
procedure-details: Radioligand binding assay using recombinant CHO cell membranes expressing human GlyT1
condition-description: radioligand binding to human GlyT1c transporter-expressing membranes
pKi: −log10 of the molar value.

| molecule | pKi |
| --- | --- |
| Cn1cnc(S(=O)(=O)N2C[C@@H](NCc3ccc(Cl)cc3Cl)[C@H](c3ccccc3Cl)C2)c1 (relative stereo) | ≥ 7.00 |
| Cn1cnc(S(=O)(=O)N2C[C@@H](CNc3cccc(C(F)(F)F)c3)[C@H](c3ccc(F)cc3)C2)c1 (relative stereo) | ≥ 6.00 |
| CCCC1CC1CN[C@H]1CN(S(=O)(=O)c2cn(C)cn2)C[C@@H]1c1ccccc1 (stereo partly drawn) [Example 650] | ≥ 6.00 |
| Cn1cnc(S(=O)(=O)N2C[C@@H](CNc3ccc(F)c(OC(F)(F)F)c3)[C@H](c3ccc(F)cc3)C2)c1 (relative stereo) | ≥ 6.00 |
| COCCNC[C@@H]1CN(S(=O)(=O)c2cn(C)cn2)C[C@H]1c1ccc(F)cc1 (relative stereo) | ≥ 5.00 |
| Cn1cnc(S(=O)(=O)N2C[C@@H](NCc3cccc(F)c3)[C@H](c3ccc(F)cc3)C2)c1 (relative stereo) | ≥ 6.00 |
| Cn1cnc(S(=O)(=O)N2C[C@H](NCC(C)(C)C)[C@@H](c3ccccc3)C2)c1 | ≥ 6.00 |
| Cc1cc(N[C@H]2CN(S(=O)(=O)c3cn(C)cn3)C[C@@H]2c2ccccc2)ncn1 | ≥ 5.00 |
| Cn1cnc(S(=O)(=O)N2C[C@@H](Nc3cc(C(F)(F)F)ccn3)[C@H](c3ccccc3)C2)c1 (relative stereo) | ≥ 7.00 |
